Protocol Text: Solubility in selected media (FaSSIF, FeSSIF, FaSSGF, pH 4 citrate, pH 6.8 phosphate)
Format: physicochemical
Condition Notes: FeSSIF, pH 5, fessif, thermodynamic from solid; read-out: Solubility: HPLC Result
Quantity Measured: solubility

>>> result("CC(=O)c1nn(CC(=O)N2[C@H](C(=O)Nc3nc(Br)ccc3C)C[C@@]3(C)C[C@@H]23)c2ccc(-c3cnc(C)nc3)cc12 [Compound 3 Form A]")
"< 10 µg/mL"

###

Protocol Text: Solvent experiments (solubility, Example 3)
Assay type: physicochemical
Condition Notes: DMSO, organic solvent or mixture
Quantity Measured: solubility (mg/mL)

>>> measured_number("CC(=O)c1nn(CC(=O)N2[C@H](C(=O)Nc3nc(Br)ccc3C)C[C@@]3(C)C[C@@H]23)c2ccc(-c3cnc(C)nc3)cc12")
104

This collection of values is drawn from patent US11807627B2.
